Data provenance: patent US11083725B2

Tested on: NHBE cells
Assay: Biolog metabolic array: substrate use by NHBE cells with or without CA09 infection
Format: cell-based, human
Conditions: Virus: CA09-infected NHBE cells, MOI 1; Biolog PMM2; 3 hr
Cut-off 2 on 590 nm absorbance normalized to zero hour (substrate use), 3 hr: below means 1, at or above means -1.

Solved cases below.
1) O=C(O)C[C@@H](O)C(=O)O : -1
2) OC[C@@H](O)[C@@H](O)CO : 1
3) O=C(O)CCCO [g-Hydroxy-Butyric Acid] : 1
4) CC(=O)CC(=O)O : 1
5) OC[C@H]1O[C@@H](OC[C@H]2OC(O)[C@H](O)[C@@H](O)[C@@H]2O)[C@H](O)[C@@H](O)[C@@H]1O (stereo partly shown) : 1
6) C[C@H](O)[C@H](O)[C@@H](O)[C@@H](O)C=O : 1
7) CC[C@H](O)C(=O)O (racemic) [D,L-a-Hydroxy-Butyric Acid] : 1
8) O=C(CO)[C@@H](O)[C@H](O)[C@H](O)CO : 1

Prompt: Report whether reported 590 nm absorbance normalized to zero hour (substrate use), 3 hr is lower than 2 (strictly) for C[C@@H]1OC(O)[C@@H](O)[C@H](O)[C@@H]1O (stereo partly shown)
Completion: 1

Prompt: hey, is 590 nm absorbance normalized to zero hour (substrate use), 3 hr for "OC[C@H]1O[C@@H]2O[C@H]3[C@H](O)[C@@H](O)[C@@H](O[C@H]4[C@H](O)[C@@H](O)[C@@H](O[C@H]5[C@H](O)[C@@H](O)[C@@H](O[C@H]6[C@H](O)[C@@H](O)[C@@H](O[C@H]7[C@H](O)[C@@H](O)[C@@H](O[C@H]1[C@H](O)[C@H]2O)O[C@@H]7CO)O[C@@H]6CO)O[C@@H]5CO)O[C@@H]4CO)O[C@@H]3CO" lower than 2 or not?
Completion: -1

Prompt: Identify whether the compound "O=C(O)C[C@H](O)C(=O)O" records 590 nm absorbance normalized to zero hour (substrate use), 3 hr below 2.
Completion: 1

Prompt: Find out if reported 590 nm absorbance normalized to zero hour (substrate use), 3 hr for "O=C(CO)[C@@H](O)[C@@H](O)[C@H](O)CO" is less than 2
Completion: 1

Prompt: Please check: 590 nm absorbance normalized to zero hour (substrate use), 3 hr for "OC[C@H]1O[C@H](O[C@H]2O[C@H](CO)[C@@H](O)[C@H](O)[C@H]2O)[C@H](O)[C@@H](O)[C@@H]1O" , strictly under 2 or not?
Completion: -1

Prompt: I wonder whether CO[C@@H]1O[C@H](CO)[C@H](O)[C@H](O)[C@H]1O [b-Methyl-D-Galactoside] has 590 nm absorbance normalized to zero hour (substrate use), 3 hr below 2. Can you tell?
Completion: 1
